test: Pharmacokinetic study of colon contents and plasma after oral dose of conjugate; format: in vivo, male C57B3L/6 mice; conditions: male, C57B3L/6; mouse plasma after oral dose of conjugate; compound measured = conjugate dosed; read-out: Plasma Cmax
Assay Readout: Cmax (nM)
Please reply with the bare figure in nM and do not write the unit itself.

Challenge: Looking for the measured Cmax of C[N+](C)(CF)CCO[C@@H]1O[C@H](CO)[C@@H](O)[C@H](O)[C@H]1O.[Cl-] , can you help?
Response given: 1300

* * *

IC50 reference
biological target: CutC from Proteus mirabilis (Proteus mirabilis); assay: Cell-based assay for TMA production from a native producer (P. mirabilis); conditions: d9-TMA from 1 mM d9-choline, 5 h, 37° C.; value 10 given when no fit or % TMA remaining at 10 μM higher than 15%; read-out: Average IC50 Whole cell P. mirabilis
Sequence (B4EYG1 entry or part of it): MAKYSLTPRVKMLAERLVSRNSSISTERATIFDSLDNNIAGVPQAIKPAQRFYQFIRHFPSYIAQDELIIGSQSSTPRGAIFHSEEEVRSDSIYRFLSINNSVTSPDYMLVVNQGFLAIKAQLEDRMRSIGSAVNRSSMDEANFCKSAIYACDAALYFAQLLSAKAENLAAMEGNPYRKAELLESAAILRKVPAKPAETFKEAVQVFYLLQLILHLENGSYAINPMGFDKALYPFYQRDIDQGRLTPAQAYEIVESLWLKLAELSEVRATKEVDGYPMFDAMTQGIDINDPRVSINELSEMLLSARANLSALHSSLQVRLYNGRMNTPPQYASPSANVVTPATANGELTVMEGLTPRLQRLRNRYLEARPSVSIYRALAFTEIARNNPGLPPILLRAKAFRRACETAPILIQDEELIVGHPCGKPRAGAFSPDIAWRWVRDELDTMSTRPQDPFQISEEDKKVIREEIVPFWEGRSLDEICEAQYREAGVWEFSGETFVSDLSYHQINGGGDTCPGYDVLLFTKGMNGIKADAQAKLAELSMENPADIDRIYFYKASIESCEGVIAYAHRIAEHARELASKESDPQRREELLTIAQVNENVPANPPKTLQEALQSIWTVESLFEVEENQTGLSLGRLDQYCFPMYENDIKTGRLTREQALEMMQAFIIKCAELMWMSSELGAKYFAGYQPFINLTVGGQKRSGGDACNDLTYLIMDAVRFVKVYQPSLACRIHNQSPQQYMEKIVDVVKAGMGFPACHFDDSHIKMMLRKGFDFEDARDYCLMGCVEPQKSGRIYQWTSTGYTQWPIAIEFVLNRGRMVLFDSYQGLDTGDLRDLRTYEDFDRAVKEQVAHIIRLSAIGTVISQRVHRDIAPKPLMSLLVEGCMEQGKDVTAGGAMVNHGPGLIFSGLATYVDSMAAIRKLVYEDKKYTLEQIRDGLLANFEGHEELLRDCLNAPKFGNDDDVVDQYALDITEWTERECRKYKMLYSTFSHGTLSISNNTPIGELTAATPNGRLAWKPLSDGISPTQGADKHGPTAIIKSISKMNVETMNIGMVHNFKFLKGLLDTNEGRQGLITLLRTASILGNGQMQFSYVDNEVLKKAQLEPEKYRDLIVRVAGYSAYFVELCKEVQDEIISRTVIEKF
Sequence (B4EYG0 entry or part of it, further chain): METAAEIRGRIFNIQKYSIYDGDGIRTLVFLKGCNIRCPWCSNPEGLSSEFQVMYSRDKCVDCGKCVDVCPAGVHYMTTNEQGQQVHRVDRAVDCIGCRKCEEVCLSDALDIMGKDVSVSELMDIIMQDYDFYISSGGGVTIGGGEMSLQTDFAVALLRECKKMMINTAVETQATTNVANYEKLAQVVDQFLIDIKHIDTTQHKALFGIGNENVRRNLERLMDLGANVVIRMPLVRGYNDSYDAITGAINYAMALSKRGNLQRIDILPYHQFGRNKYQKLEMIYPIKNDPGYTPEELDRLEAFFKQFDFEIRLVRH
Please reply with the bare figure in µM and do not write the unit itself.

Guide cases for IC50, answers given:
{"Molecule": "C#CC[N+](C)(C)CC#C", "Quantitative Result": 2.13}
{"Molecule": "C#CC[N+]1(C)CCCN1.[I-] (stereo not drawn)", "Quantitative Result": 0.19}
{"Molecule": "C#CC(C)[N+](C)(C)C (stereo not drawn)", "Quantitative Result": 0.66}
{"Molecule": "C[N+]1(CF)CCC[C@H]1CO.[I-] (stereo partly drawn)", "Quantitative Result": 0.62}

Challenge: Looking for the measured IC50 of C[N+]1(CF)CC[C@H](O)C1 (stereo partly drawn) , can you help?
Response given: 2.08

Challenge: Looking for the measured IC50 of C#CC1CCC[N+]1(C)C (stereo not drawn) , can you help?
Response given: 0.244

Challenge: Looking for the measured IC50 of C#CCn1ccnc1 , can you help?
Response given: 4.04
